Here the recorded EC50 is given for each entry.
EXPERIMENTAL_TARGET: HER2 InsVC (G776delinsVC) transformed Ba/F3 cells (Homo sapiens, UniProt P04626, G776C/INS775V)
Sequence (P04626 with tags, fused parts or gaps INS775V/G776C): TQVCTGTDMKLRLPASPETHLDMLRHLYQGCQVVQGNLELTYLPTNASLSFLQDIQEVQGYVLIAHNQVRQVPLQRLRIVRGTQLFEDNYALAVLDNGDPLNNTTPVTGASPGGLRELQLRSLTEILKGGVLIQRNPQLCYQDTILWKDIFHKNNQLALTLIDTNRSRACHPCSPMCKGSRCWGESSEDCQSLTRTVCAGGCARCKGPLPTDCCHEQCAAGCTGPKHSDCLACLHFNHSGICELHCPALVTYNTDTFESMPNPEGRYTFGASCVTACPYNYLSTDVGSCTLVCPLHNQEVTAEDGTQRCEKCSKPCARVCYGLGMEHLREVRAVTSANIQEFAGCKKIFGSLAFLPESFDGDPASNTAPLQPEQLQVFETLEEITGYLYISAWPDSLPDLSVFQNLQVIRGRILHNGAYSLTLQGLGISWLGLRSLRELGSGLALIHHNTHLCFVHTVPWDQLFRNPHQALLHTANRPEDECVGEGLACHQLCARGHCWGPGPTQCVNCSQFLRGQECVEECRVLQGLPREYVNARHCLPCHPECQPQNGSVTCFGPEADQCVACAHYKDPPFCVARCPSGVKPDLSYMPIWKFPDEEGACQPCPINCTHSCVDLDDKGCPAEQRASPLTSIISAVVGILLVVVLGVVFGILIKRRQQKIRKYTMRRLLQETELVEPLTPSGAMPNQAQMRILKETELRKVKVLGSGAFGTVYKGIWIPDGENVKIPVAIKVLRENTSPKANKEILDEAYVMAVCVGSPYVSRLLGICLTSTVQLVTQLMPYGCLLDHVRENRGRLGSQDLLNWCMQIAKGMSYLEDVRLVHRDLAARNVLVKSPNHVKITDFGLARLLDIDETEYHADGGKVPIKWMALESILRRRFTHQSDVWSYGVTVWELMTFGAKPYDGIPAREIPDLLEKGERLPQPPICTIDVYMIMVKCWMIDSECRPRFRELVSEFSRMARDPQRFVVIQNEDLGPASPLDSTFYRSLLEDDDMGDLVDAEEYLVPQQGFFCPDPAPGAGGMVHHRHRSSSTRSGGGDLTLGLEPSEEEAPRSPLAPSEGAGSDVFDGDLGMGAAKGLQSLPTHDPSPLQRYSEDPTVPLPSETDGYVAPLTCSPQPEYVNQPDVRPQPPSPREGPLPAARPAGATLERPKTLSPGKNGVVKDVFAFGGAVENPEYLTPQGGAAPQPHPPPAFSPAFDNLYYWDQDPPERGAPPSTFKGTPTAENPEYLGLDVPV
TEST_METHOD_NOTES: Proliferation inhibition assay, HER2 InsVC transformed Ba/F3 cells
CONDITION_SUMMARY: MTS assay, 72 hours, Table 9 key

Study these solved cases before continuing.
- MOLECULE: "C=CC(=O)N1CCC[C@@H](n2c(=O)c(Oc3ccc(F)cc3F)cc3cnc(Nc4cnn(C5CCN(C)CC5)c4)nc32)C1"
  EC50: "< 100 nM"
- MOLECULE: "C=CC(=O)Nc1cc(Nc2ncc3cc(Oc4ccc(F)cc4F)c(=O)n(C)c3n2)c(OC)cc1N(C)CCN(C)C"
  EC50: "< 100 nM"
- MOLECULE: "C=CC(=O)N1CCCC(n2c(=O)c(Oc3ccc(F)cc3F)cc3cnc(Nc4cnn(C)c4)nc32)CC1 (stereo not drawn)"
  EC50: "< 100 nM"
- MOLECULE: "C=CC(=O)Nc1cccc(-n2c(=O)c(Oc3ccc(F)cc3F)cc3cnc(Nc4cn(C)nc4OC)nc32)c1"
  EC50: "< 100 nM"
- MOLECULE: "C=CC(=O)N1CCC(Cn2c(=O)c(Oc3ccc(F)cc3F)cc3cnc(Nc4cnn(C)c4)nc32)C1 (stereo not drawn)"
  EC50: "250 to 500 nM"
- MOLECULE: "C=CC(=O)Nc1cccc(-n2c(=O)c(Oc3ccc(F)cc3)cc3cnc(Nc4cnn(C)c4)nc32)c1"
  EC50: "< 100 nM"
- MOLECULE: "C=CC(=O)NC1CCCC(n2c(=O)c(Oc3ccc(F)cc3F)cc3cnc(Nc4cnn(C)c4)nc32)C1 (stereo not drawn)"
  EC50: "< 100 nM"
- MOLECULE: "C=CC(=O)N1CCC[C@@H](n2c(=O)c(Oc3ccc(F)cc3F)cc3cnc(Nc4cnn(C)c4)nc32)C1"
  EC50: "< 100 nM"

Give the value of EC50 reported for the following: `C=CC(=O)Nc1cccc(-n2c(=O)c(Oc3ccc(F)cc3F)cc3cnc(Nc4cnn(C5CCN(C)CC5)c4)nc32)c1`
100 to 250 nM

Give the value of EC50 reported for the following: `CN(C)C/C=C/C(=O)Nc1cccc(-n2c(=O)c(Oc3ccc(F)cc3F)cc3cnc(Nc4cnn(C)c4)nc32)c1`
250 to 500 nM

Give the value of EC50 reported for the following: `C=CC(=O)Nc1cccc(-n2c(=O)c(Oc3ccc(F)cc3F)cc3cnc(Nc4cn(C)nc4OCC)nc32)c1`
< 100 nM
